Test system: COLO 320/MDR-LRP multidrug resistant colonic adenocarcinoma cells expressing P-gp
Test: Antiproliferative MTT assay, COLO 320
Conditions: selectivity index: IC50 in non-tumour cells / IC50 in cancer cells

molecule	system-name	inequality-sign	SI MRC-5/COLO 320
C=Cc1cc(C)cc2c1-c1ccc(O)c(COC(O)c3ccc(O)cc3)c1CC2 (stereo not shown)	COLO 320/MDR-LRP multidrug resistant colonic adenocarcinoma cells expressing P-gp	=	1.39
C#Cc1c(C)c(O)cc2c1CCc1c-2ccc(O)c1C	COLO 320/MDR-LRP multidrug resistant colonic adenocarcinoma cells expressing P-gp	=	0.80
C=Cc1c(C)cc(O)c2c1CCc1c-2cc(-c2c(O)c(C)c(C=C)c3ccc4c(C)c(O)ccc4c23)c(O)c1C	COLO 320/MDR-LRP multidrug resistant colonic adenocarcinoma cells expressing P-gp	=	0.88
C=Cc1cc(C)cc2c1-c1ccc(O)c(C)c1CC2	COLO 320/MDR-LRP multidrug resistant colonic adenocarcinoma cells expressing P-gp	=	1.16
C=Cc1c(CO)cc(O)c2c1CCc1c-2ccc(O)c1C	COLO 320/MDR-LRP multidrug resistant colonic adenocarcinoma cells expressing P-gp	>	1.07
C=Cc1c(C)cc(O)c2c1CCc1c-2cc(-c2cc3c(c(C)c2O)CCc2c(C=C)c(C)cc(O)c2-3)c(O)c1C	COLO 320/MDR-LRP multidrug resistant colonic adenocarcinoma cells expressing P-gp	=	1.35
C=Cc1c(C)cc(O)c2c1CCc1c-2cc(-c2c(C)c(C=C)c3c(c2O)-c2ccc(O)c(C)c2CC3)c(O)c1C	COLO 320/MDR-LRP multidrug resistant colonic adenocarcinoma cells expressing P-gp	=	1.35
C=Cc1cc(C)cc2c1-c1ccc(O)c(COC)c1CC2	COLO 320/MDR-LRP multidrug resistant colonic adenocarcinoma cells expressing P-gp	>	1.62
C=Cc1c(C)cc(O)c2c1CCc1c-2ccc(O)c1C	COLO 320/MDR-LRP multidrug resistant colonic adenocarcinoma cells expressing P-gp	=	1.76
Cc1cc(O)c2c(c1C(O)COc1cc(-c3cc(=O)c4c(O)cc(O)cc4o3)ccc1O)CCc1c-2ccc(O)c1C (stereo not shown)	COLO 320/MDR-LRP multidrug resistant colonic adenocarcinoma cells expressing P-gp	=	1.52
